- System: SW-620 colon
- EXPERIMENT DESCRIPTION: NCI tumour cell line growth inhibition, 48 h
Where a SMILES comes first, the peptide text is derived from it. The star is where a group is joined. Fmoc = O=C(OCC1c2ccccc2-c2ccccc21)*; OtBu = CC(C)(C)O*
EXPERIMENTAL ENDPOINT: TGI

These recorded examples may help you get a feel for the data.
CSC12c3cc(C)n(-c4ccc([N+](=O)[O-])cc4)c3CC(C)(C)CN1C(=O)C2Oc1ccccc1 (stereo unspecified) | > 100 µM
CC(C)C(NC(=O)OCC1c2ccccc2-c2ccccc21)C(=O)NC(CCC(=O)OC(C)(C)C)C(=O)OC(C)(C)C (stereo unspecified) (Fmoc-Val-Glu(OtBu)-OtBu; configuration not given here) | > 100 µM
COc1cc(C(=O)NC2CCc3cc(OC)c(OC)c(OC)c3-c3ccc(OC)c(=O)cc32)cc(OC)c1OC (stereo unspecified) | > 100 µM

API: the following record is the query input.
Ask: Record request: TGI value, item O=C(Nc1ccccc1)c1cc(S(=O)(=O)Nc2n[nH]c(=O)n2-c2ccccc2)c(S)cc1Cl
Reply: > 100 µM

* * *

- Test system: CCRF-CEM leukemia
- EXPERIMENT DESCRIPTION: NCI tumour cell line growth inhibition, 48 h
EXPERIMENTAL ENDPOINT: TGI

Some solved cases for reference:
Oc1c(Cl)cc(Cl)c(Cl)c1CNCCNCc1c(O)c(Cl)cc(Cl)c1Cl | > 50 µM
Cc1[nH]c(=O)nc2nc3cc(Cl)cc(Cl)c3c(NC(C)(CO)CO)c12 | > 100 µM
O=C1/C(=C/c2cccc(Cl)c2)CCCc2ccccc21 | 30.4 µM

Ask: Item Cc1ccc2c(=O)cc(-c3sccc3C)[nH]c2n1 has what recorded TGI?
Reply: > 24.4 µM

* * *

- Test system: HOP-92 NSCLC
- EXPERIMENT DESCRIPTION: NCI tumour cell line growth inhibition, 48 h
EXPERIMENTAL ENDPOINT: TGI (µM)
Quick note: give the figure in µM, leave out the unit.

Ask: Which TGI value belongs to CC(C)(C)C(=O)OCOP(=O)(NCc1ccccc1)C1CCCN(O)C1=O (centres undefined) ?
Reply: 7.72

Ask: Look up TGI for this molecule: COc1cc2c(cc1OC(C)C)[C@H](c1ccc(Cl)cc1)N(c1ccc(N(C)CC3CCC(N4CCN(C)C(=O)C4)CC3)cc1)C(=O)C2 (some centres undefined)
Reply: 4.85

* * *

- Test system: SNB-75 CNS
- EXPERIMENT DESCRIPTION: NCI tumour cell line growth inhibition, 48 h
Where a SMILES comes first, the peptide text is derived from it. The star is where a group is joined. Fmoc = O=C(OCC1c2ccccc2-c2ccccc21)*; OtBu = CC(C)(C)O*
EXPERIMENTAL ENDPOINT: TGI

Solved cases below.
CC1=C(C(=O)OC2CC3CCC2(C)C3(C)C)C2Nc3ccccc3N(C)C2O1 (stereo unspecified) | 11.5 µM
CC(C)C[C@H](NC(=O)CNC(=O)c1cc(Cl)ccc1Cl)B(O)O | 0.124 µM
C=C(CCCCC)CN1CCCC1C(C)=O (stereo unspecified) | 78.7 µM
CC1=C(C#N)C(=C(C#N)C#N)OC1(C)Cc1ccccc1 (stereo unspecified) | > 100 µM
CC(=O)Nc1ccc2c(c1)/C(=C\c1ccc([N+](C)(C)C)cc1)c1ccccc1-2 | > 100 µM
CC(C)(C)C1=CC(=C(P(=O)(O)O)P(=O)(O)O)C=C(C(C)(C)C)C1=O | > 50 µM

Ask: So what's the measured TGI for this one? C=CCC1(CN(C)C)CC/C(=C\c2ccc(OC)cc2)C1=O (stereo unspecified)
Reply: > 100 µM

Ask: # lookup: TGI of COc1ccc(/C=C\c2cc(OC)c(OC)c(OC)c2)cc1OCC(=O)Nc1nc2ccc(F)cc2s1
Reply: > 100 µM

Ask: What TGI value was documented for this compound, CCOC1CN=C(Nc2cccc3ccccc23)S1 (stereo unspecified) ?
Reply: > 10 µM

Ask: TGI lookup needed for COc1cc(OC)cc(OCc2nc3cc(C(F)(F)F)ccc3nc2-c2ccccc2)c1 , thanks.
Reply: > 100 µM

Ask: Query (compound): O=C(NCCCCN1CCOCC1)c1cc2ccccc2o1 ; field requested: TGI
Reply: > 100 µM

Ask: // query TGI value for entry CC(C)C(NC(=O)OCC1c2ccccc2-c2ccccc21)C(=O)NC(CCC(=O)OC(C)(C)C)C(=O)OC(C)(C)C (stereo unspecified) (Fmoc-Val-Glu(OtBu)-OtBu; configuration not given here)
Reply: > 100 µM

Ask: Entry under review: COc1ccccc1Nc1nc2c([nH]1)c(=O)n(C)c(=O)n2C . Reported TGI?
Reply: > 10 µM

Ask: Any idea what TGI was measured for CSC12c3cc(C)n(-c4ccc([N+](=O)[O-])cc4)c3CC(C)(C)CN1C(=O)C2Oc1ccccc1 (stereo unspecified) ?
Reply: > 100 µM

Ask: Consider the compound NS(=O)(=O)OC[C@H]1C[C@@H](Nc2ccnc3cc(-c4cccc(SC(F)(F)F)c4)nn23)[C@H](O)[C@@H]1O and give its measured TGI.
Reply: 0.187 µM
